Biological target: Mouse ACVR2A (mouse, UniProt P27038 20-135, limits assumed); note: test concentration or dose not given here
Sequence (P27038 20-135 limits assumed): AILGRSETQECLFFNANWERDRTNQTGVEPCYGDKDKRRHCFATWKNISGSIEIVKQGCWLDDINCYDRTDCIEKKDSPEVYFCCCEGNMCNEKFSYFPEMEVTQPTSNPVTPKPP
Assay: ELISA
observedProperty: optical density (OD)
Quick note: give the figure in OD, leave out the unit.

Data request, read-out optical density, for 373_C02 (antibody, V domains shown) VH: EVQLLESGGGLVQPGGSLRLSCAASGFTFDDYSMNWVRQAPGKGLEWVSGINYNSGYKGYADSVKGRFTISRDNSKNTLYLQMNSLRAEDTAVYYCARSANWHDTALDYWGQGTLVTVSS VL: DIQMTQSPSSLSASVGDRVTITCRASQSILSYVNWYQQKPGKAPKLLIYAATSRASGVPSRFSGSGSGTDFTLTISSLQPEDFATYYCQQSYNTPLTFGGGTKVEIK 3.47

Data request, read-out optical density, for 370_H09 (antibody, V domains shown) VH: EVQLLESGGGLVQPGGSLRLSCAASGFTFSSYGMNWVRQAPGKGLEWVANINYNGGYTSYADSVKGRFTISRDNSKNTLYLQMNSLRAEDTAVYYCARSANWHDTALDYWGQGTLVTVSS VL: DIQMTQSPSSLSASVGDRVTITCRASQSIVSYVNWYQQKPGKAPKLLIYAATSRASGVPSRFSGSGSGTDFTLTISSLQPEDFATYYCQQSYDNPLTFGGGTKVEIK 3.28

Data request, read-out optical density, for 370_E09 (antibody, V domains shown) VH: EVQLLESGGGLVQPGGSLRLSCAASGFTFDDSSMHWVRQAPGKGLEWVSNINYNGGYTGYADSVKGRFTISRDNSKNTLYLQMNSLRAEDTAVYYCAKSANWHDTALDYWGQGTLVTVSS VL: DIQMTQSPSSLSASVGDRVTITCRASQSILSYVNWYQQKPGKAPKLVIYAATSRASGVPSRFSGSGSGTDFTLTISSLQPEDFATYYCQQSYELPLTFGGGTKVEIK 3.56
